Test: serotonin-gated TRPC4 signal block – cell-based, second counter screen, HEK293 TRPC4/5HT1a, Fluo-4, counter-screen for TRPC4 inhibitor project, confirmation (AID 434978)
Details: Fluo-4 calcium flux, at 10 µM, serotonin added to trigger calcium flux; stronger effect = higher value
Activity calls are given as the source filed them.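 Rule for the calls: active = primary screen active whose calcium signal fell more than 3 SD beyond the full-serotonin control mean in both duplicate plates; inactive = the rest.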
Endpoint: inhibition

CSc1ccccc1OC1CCN(Cc2ccccc2)CC1: inactive
N=c1c2c3c(sc2ncn1Cc1ccccc1)CCCC3: inactive
Cc1ccc(C(=O)NC(=S)Nc2c(C)ccc3nsnc23)cc1: 18.1% (active)
O=C1/C(=C\c2cc([N+](=O)[O-])ccc2O)SC(=S)N1Cc1ccc(Cl)cc1: inactive

###

Molecular target: Short transient receptor potential channel 4 (Mus musculus) (UniProt Q9QUQ5)
Sequence (Q9QUQ5 whole entry, looked up): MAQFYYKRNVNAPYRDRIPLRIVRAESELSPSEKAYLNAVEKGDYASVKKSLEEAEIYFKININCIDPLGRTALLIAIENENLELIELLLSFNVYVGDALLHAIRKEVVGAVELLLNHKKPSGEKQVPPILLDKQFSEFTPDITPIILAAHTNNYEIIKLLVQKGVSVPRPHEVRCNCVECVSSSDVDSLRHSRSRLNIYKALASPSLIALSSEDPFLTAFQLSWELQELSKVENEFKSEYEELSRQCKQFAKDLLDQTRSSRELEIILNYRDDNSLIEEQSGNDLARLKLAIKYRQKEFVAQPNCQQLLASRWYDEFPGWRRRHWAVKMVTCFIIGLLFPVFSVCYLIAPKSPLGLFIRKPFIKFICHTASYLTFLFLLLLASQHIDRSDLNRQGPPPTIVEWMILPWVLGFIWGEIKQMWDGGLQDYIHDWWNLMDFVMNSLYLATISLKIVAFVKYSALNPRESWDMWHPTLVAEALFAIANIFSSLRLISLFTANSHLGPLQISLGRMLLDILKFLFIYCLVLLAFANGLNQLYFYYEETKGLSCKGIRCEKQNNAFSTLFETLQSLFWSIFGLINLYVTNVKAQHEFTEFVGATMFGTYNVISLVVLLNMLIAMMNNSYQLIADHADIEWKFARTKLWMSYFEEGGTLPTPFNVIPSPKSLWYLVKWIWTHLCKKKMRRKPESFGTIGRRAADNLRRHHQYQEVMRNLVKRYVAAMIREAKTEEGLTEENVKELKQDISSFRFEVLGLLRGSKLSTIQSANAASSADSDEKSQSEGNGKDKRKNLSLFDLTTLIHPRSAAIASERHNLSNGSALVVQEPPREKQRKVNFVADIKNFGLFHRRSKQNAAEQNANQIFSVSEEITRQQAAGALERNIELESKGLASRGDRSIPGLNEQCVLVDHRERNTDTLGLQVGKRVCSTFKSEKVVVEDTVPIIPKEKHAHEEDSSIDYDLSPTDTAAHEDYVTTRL
Assay: blockers of DAMGO-evoked TRPC4 calcium flux – cell-based, Fluo4, HEK293 TRPC4beta/mu-opioid, confirmation (AID 2636)
Conditions: at 10 µM
Calls of active or inactive are those of the source.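 How the source made its calls: active means calcium signal cut by more than 3 SD below the full-agonist control yet still positive, in both repeats and the earlier primary screen; inactive means the rest.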
Write down the outcome that applies. Available outcomes: active, inactive

Solved cases below.
CNCc1c(OCc2ccccc2)ccc2ccccc12: active
c1ccc(COC(CN2CCCCCC2)CN2CCCCCC2)cc1: active
CCn1cc(CNCc2cn(-c3ccccc3C)nc2-c2ccc(OC)c(F)c2)cn1: inactive
COc1ccc(CN2CCN(Cc3ccccc3F)CC2)c(OC)c1: active

With those in mind, consider the next compound.
Exercise: Please indicate how the test categorized CCc1ccc(Nc2n[n+](-c3ccccc3)c(/C=C/c3ccccc3)s2)cc1 .
Solution: inactive
